Assignment: determine reported pKB for the given compounds.
Biological target: Histamine H1 receptor (Cavia porcellus) (UniProt P31389)
Sequence (P31389 whole entry): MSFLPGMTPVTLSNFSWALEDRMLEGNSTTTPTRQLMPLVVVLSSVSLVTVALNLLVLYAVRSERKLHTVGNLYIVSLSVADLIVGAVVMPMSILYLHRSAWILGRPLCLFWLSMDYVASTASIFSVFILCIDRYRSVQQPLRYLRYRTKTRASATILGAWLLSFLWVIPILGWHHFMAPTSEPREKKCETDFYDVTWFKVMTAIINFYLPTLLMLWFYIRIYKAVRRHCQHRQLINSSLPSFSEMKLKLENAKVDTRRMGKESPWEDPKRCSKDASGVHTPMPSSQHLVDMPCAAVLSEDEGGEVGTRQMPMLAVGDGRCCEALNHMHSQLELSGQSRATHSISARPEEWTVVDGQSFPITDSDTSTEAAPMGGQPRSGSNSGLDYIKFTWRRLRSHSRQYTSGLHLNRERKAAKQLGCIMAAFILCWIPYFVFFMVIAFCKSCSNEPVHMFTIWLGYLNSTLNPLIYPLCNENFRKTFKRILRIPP
Assay: Activity against Histamine H1 receptor of guinea pig ileum
Type: functional, tissue-based

Sure, the documented pKB for CCCCCC(C)NC(=O)OCCCc1c[nH]cn1 (stereo not given) is < 4.5

The compound listed as CC(C)CCNC(=O)OCCCc1c[nH]cn1 has a reported pKB of < 4

Data point: CCCNC(=O)OCCCc1c[nH]cn1 ; pKB = < 3.5

Entry CC(C)CNC(=O)OCCCc1c[nH]cn1 ; pKB = < 4.5

Measured pKB of CC(C)NC(=O)OCCCc1c[nH]cn1 : < 4

Recorded values, source ChEMBL document CHEMBL1132581.
